This section presents compounds with their documented Activity values.
System Tested: Protein cereblon/von Hippel-Lindau disease tumor suppressor (Homo sapiens, UniProt P40337+Q96SW2)
Sequence (P40337 whole entry, looked up): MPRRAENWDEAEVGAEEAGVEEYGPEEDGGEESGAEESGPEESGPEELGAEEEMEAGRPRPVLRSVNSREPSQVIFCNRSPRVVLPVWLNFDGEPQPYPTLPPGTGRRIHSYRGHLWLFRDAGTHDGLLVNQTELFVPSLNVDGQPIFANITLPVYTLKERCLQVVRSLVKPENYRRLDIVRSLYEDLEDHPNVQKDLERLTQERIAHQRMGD
Sequence (Q96SW2 whole entry, looked up): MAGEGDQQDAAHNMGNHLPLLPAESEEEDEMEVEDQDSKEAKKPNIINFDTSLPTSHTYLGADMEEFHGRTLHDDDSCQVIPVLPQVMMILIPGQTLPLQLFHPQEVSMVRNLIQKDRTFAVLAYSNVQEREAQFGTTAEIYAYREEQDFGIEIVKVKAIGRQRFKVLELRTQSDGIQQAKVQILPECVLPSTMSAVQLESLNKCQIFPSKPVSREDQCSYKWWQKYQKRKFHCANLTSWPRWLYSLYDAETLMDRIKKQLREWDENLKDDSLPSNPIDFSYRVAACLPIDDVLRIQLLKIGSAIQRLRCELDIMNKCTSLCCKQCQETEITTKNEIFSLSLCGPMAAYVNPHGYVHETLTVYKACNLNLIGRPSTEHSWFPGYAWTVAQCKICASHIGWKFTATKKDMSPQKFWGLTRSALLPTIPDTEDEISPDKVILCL
Assay: Protac activity at VHL/CRBN in human HeLa cells assessed as pVHL30 protein abundance at 1 uM after 4 hrs by Western blot analysis relative to DMSO
Format: cell-based
Give your result in % as a bare value.

{"columns": ["Compound", "Activity / %"],
 "data": [
  ["Cc1ncsc1-c1ccc(CNC(=O)[C@@H]2C[C@@H](O)CN2C(=O)[C@@H](NC(=O)C2(F)CC2)C(C)(C)C)c(OCCCCC(=O)NCCNc2cccc3c2C(=O)N(C2CCC(=O)NC2=O)C3=O)c1 (stereo not given in full)", 126],
  ["Cc1ncsc1-c1ccc(CNC(=O)[C@@H]2C[C@@H](O)CN2C(=O)[C@@H](NC(=O)C2(F)CC2)C(C)(C)SCCCCC(=O)NCCNc2cccc3c2C(=O)N(C2CCC(=O)NC2=O)C3=O)cc1 (stereo not given in full)", 114],
  ["Cc1ncsc1-c1ccc(CNC(=O)[C@@H]2C[C@@H](O)CN2C(=O)[C@@H](NC(=O)COCCOCCOCCOCC(=O)NCCNc2cccc3c2C(=O)N(C2CCC(=O)NC2=O)C3=O)C(C)(C)C)cc1 (stereo not given in full)", 101]
]}

Would you kindly share the measured Activity for Cc1ncsc1-c1ccc(CNC(=O)[C@@H]2C[C@@H](O)CN2C(=O)[C@@H](NC(=O)C2(F)CC2)C(C)(C)SCCOCCOCCOCC(=O)NCCNc2cccc3c2C(=O)N(C2CCC(=O)NC2=O)C3=O)cc1 (stereo not given in full) ?
104

Would you kindly share the measured Activity for Cc1ncsc1-c1ccc(CNC(=O)[C@@H]2C[C@@H](O)CN2C(=O)[C@@H](NC(=O)COCCOCCOCCOCCOCC(=O)NCCNc2cccc3c2C(=O)N(C2CCC(=O)NC2=O)C3=O)C(C)(C)C)cc1 (stereo not given in full) ?
95

Origin of the recorded values: ChEMBL document CHEMBL4665633
